target.desc: Rap guanine nucleotide exchange factor 4 (Homo sapiens)
test.name: qHTS for Agonist of cAMP-regulated guanine nucleotide exchange factor 4 (EPAC2): primary screen; further: nearly all actives have a fitted effect of over 50% in size
conditions: biochemical qHTS; EPAC2 activation; series mostly up to 154 µM
Hit rate of the full screen: of about 360,000 compounds, about 290 (0.081%) were called active. The call rests on the fitted dose curve; in most records, active means well fitted activation curve with a large enough effect; inconclusive means small, poorly fitted or top-dose-only effect; inactive means no such curve, though single readings can be large or run the other way. This excerpt belongs to a sample that is enriched for actives.
Returns: one label drawn from yes (active), no (inactive)

Worked examples follow.
[
  {
    "molecule": "O=C(NC1(C(F)(F)F)N=C2SCCN2C1=O)c1ccco1 (stereo unspecified)",
    "target.desc": "Rap guanine nucleotide exchange factor 4 (Homo sapiens)",
    "label.value": "no"
  },
  {
    "molecule": "CCN(CC)c1ccc2oc(=O)c(C)nc2c1",
    "target.desc": "Rap guanine nucleotide exchange factor 4 (Homo sapiens)",
    "label.value": "yes"
  },
  {
    "molecule": "O=C(O)CCCn1c(=O)c2cccn2c2ccc(F)cc21",
    "target.desc": "Rap guanine nucleotide exchange factor 4 (Homo sapiens)",
    "label.value": "no"
  },
  {
    "molecule": "Cc1ccc(S(=O)(=O)N2CCC(C(=O)N[C@@H](C)C(=O)NCCc3ccccc3)CC2)cc1",
    "target.desc": "Rap guanine nucleotide exchange factor 4 (Homo sapiens)",
    "label.value": "no"
  }
]

We next turn to a different molecule, shown below.
Hi team, can someone confirm the assay call for `COC(=O)Cc1csc(/N=C/c2c(O)n(-c3cccc(C(F)(F)F)c3)c(=O)c3ccccc23)n1` ? no

---

target.desc: Rap guanine nucleotide exchange factor 4 (Homo sapiens) (UniProt Q8WZA2)
Sequence (Q8WZA2 whole entry, looked up): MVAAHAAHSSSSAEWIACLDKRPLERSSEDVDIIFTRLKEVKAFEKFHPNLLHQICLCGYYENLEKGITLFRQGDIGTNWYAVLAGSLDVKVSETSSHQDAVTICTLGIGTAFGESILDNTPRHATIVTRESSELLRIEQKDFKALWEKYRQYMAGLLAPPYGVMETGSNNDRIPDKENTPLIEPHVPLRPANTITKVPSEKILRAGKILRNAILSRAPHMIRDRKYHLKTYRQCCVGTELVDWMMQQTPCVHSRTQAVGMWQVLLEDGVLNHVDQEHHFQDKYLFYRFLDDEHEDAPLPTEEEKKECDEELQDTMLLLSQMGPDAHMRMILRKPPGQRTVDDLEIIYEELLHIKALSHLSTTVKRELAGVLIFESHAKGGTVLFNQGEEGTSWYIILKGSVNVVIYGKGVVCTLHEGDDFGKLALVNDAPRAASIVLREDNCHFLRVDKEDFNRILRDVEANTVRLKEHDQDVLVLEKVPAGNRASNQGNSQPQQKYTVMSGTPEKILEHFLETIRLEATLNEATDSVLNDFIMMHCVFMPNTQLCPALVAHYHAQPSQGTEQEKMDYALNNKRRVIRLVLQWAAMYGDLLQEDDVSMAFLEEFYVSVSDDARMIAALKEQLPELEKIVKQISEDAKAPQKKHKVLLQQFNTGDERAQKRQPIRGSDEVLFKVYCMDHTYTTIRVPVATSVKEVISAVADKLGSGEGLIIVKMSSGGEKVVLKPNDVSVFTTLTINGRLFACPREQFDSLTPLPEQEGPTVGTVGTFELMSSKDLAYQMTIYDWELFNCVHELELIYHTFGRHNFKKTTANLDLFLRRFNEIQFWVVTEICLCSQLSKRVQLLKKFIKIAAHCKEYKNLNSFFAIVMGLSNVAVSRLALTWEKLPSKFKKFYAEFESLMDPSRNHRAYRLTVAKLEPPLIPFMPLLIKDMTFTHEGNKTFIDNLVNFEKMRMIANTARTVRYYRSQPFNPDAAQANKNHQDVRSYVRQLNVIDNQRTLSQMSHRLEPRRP
test.name: qHTS for Agonist of cAMP-regulated guanine nucleotide exchange factor 4 (EPAC2): primary screen; further: nearly all actives have a fitted effect of over 50% in size
conditions: biochemical qHTS; EPAC2 activation; series mostly up to 154 µM
About 290 (0.081%) of roughly 360,000 compounds were called active. Calls come from the whole dose curve; as a rule, active = well fitted activation curve with a large enough effect; inconclusive = small, poorly fitted or top-dose-only effect; inactive = no such curve, though single readings can be large or run the other way. For the sample, actives were picked, then their nearest neighbours and some compounds at random.
Parameter call: string, one of active, inactive

[
  {
    "compound": "Cc1cc(OCC(=O)N(C)c2c(N)n(Cc3ccccc3)c(=O)[nH]c2=O)c(C(C)C)cc1Cl",
    "label.value": "inactive"
  },
  {
    "compound": "Cc1cccc(OCc2nnc(SCc3nc4cc(C(F)(F)F)ccc4c(=O)[nH]3)o2)c1",
    "label.value": "inactive"
  }
]

Could you kindly confirm the outcome this assay logged for COc1cccc(C2CC(c3cccs3)=NN2C(=O)CSC2=NCCS2)c1OC (stereo unspecified) ? inactive

State the result this test recorded for `CCCn1c(C)cc(/C=C(\C#N)C(=O)OCC(=O)N(C)c2c(N)n(Cc3ccccc3)c(=O)[nH]c2=O)c1C` . inactive

What classification did `CCOC(=O)/C(C#N)=C/c1ccc(N2CCCCC2)cc1` end up with in this test? active

Which result was noted for this compound in the test: `CCOC(=O)/C(C#N)=C\c1c(C)cc(C)c(COC(C)=O)c1C` inactive

What did this assay record as the result for `O=CN1CCN(C(=O)c2ccc(Br)o2)CC1` ? inactive

---

target.desc: Rap guanine nucleotide exchange factor 4 (Homo sapiens) (UniProt Q8WZA2)
test.name: qHTS for Agonist of cAMP-regulated guanine nucleotide exchange factor 4 (EPAC2): primary screen; further: nearly all actives have a fitted effect of over 50% in size
conditions: biochemical qHTS; EPAC2 activation; series mostly up to 154 µM
About 290 (0.081%) of roughly 360,000 compounds were called active. The call rests on the fitted dose curve; in most records, active means well fitted activation curve with a large enough effect; inconclusive means small, poorly fitted or top-dose-only effect; inactive means no such curve, though single readings can be large or run the other way. The entries come from a sample that favours actives as a whole.
API: response.call in T (active), F (inactive)

Some entries whose results are on file:
[
  {
    "molecule": "C[n+]1ccc(/C=C/c2c[nH]c3ccccc23)cc1",
    "label.value": "T"
  },
  {
    "molecule": "CC(Sc1ccccc1F)C(=O)Nc1cccc(S(=O)(=O)N2CCOCC2)c1 (stereo not given)",
    "label.value": "F"
  },
  {
    "molecule": "CCC1C(C#N)=C(SC)NC2=C1C(=O)CC(C)(C)C2 (stereo not given)",
    "label.value": "F"
  },
  {
    "molecule": "CCc1nn(CCCC(=O)NCc2ccc(C)cc2)c(=O)c2cc3occc3n12",
    "label.value": "F"
  }
]

Note: attention shifts to another entry.
Which outcome was assigned to `CCCCn1c(N)c(N(CCC(C)C)C(=O)c2ccc(COc3ccccc3)o2)c(=O)[nH]c1=O` in this test? F
